TARGET: Progesterone receptor (Homo sapiens, UniProt P06401)
Sequence (P06401 whole entry): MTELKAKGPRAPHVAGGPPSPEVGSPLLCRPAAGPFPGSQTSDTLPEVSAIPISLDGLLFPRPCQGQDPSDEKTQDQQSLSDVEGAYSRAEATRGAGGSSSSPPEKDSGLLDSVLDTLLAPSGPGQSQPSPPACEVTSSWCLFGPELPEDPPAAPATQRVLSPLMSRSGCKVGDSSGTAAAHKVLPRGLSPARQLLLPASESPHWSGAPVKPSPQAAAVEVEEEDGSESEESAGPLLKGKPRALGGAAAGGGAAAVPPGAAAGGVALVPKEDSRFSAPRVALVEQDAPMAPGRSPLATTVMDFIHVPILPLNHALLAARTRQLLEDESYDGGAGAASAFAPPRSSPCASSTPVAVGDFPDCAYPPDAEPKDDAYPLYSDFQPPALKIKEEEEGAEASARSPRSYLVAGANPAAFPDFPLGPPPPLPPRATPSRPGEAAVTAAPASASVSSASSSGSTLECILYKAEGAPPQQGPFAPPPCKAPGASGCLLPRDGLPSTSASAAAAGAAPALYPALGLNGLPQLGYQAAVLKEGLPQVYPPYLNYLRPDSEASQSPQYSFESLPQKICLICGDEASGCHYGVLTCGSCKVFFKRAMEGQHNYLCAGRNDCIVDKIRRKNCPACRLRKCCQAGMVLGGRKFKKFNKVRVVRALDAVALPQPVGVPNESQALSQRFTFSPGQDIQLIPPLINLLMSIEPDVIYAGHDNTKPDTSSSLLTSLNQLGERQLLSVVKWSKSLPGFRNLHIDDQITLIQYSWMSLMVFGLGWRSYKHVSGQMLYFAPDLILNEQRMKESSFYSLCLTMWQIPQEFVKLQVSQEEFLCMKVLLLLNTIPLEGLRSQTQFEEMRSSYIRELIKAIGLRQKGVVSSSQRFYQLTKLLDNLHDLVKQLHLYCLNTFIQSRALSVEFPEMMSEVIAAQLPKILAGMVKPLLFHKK
TEST PROTOCOL: Antagonist activity at human progesterone receptor in T47D cells after 24 hrs by alkaline phosphatase assay
Assay type: functional, cell-based
ASSAY READOUT: log10(IC50) (log10 of the value in µM)
# values: log10(IC50), units µM

Examples from the recorded data:
COc1cc2oc(=O)ccc2cc1-c1ccc(N(C)C)cc1 : 0.52
O=c1ccc2cc(-c3ccco3)ccc2o1 : 0.11
CN(C)c1cc2oc(=O)ccc2cc1-c1ccc(F)cc1 : -0.33
CCN(CC)c1cc2oc(=O)ccc2cc1-c1cccc(C#N)c1 : -0.42
O=c1ccc2cc(-c3cccc(C(F)(F)F)c3)ccc2o1 : -0.72

Entry CCN(CC)c1cc2oc(=O)ccc2cc1-c1cccs1 ; assay system Progesterone receptor (Homo sapiens, UniProt P06401); log10(IC50) recorded at -0.66

Tested on Progesterone receptor (Homo sapiens, UniProt P06401): COc1cc2oc(=O)ccc2cc1-c1ccccc1 . Observed log10(IC50): -0.06

Field log10(IC50) (Progesterone receptor (Homo sapiens, UniProt P06401)), entry CCN(CC)c1cc2oc(=O)ccc2cc1-c1ccc([N+](=O)[O-])cc1 : -0.07

Let me check: O=c1ccc2cc(-c3ccc(F)cc3)ccc2o1 , system Progesterone receptor (Homo sapiens, UniProt P06401), measured log10(IC50) is -0.68

Known value: Progesterone receptor (Homo sapiens, UniProt P06401) log10(IC50) of the compound CCN(CC)c1cc2oc(=O)ccc2cc1-c1ccc(N)c([N+](=O)[O-])c1 equals -0.29

The compound O=c1ccc2cc(-c3ccc(Cl)s3)ccc2o1 , when measured on Progesterone receptor (Homo sapiens, UniProt P06401), yielded log10(IC50) of -0.92
